This section presents molecules with their documented hepatocyte CLint at 1 μM values.
assay: Hepatic metabolic stability (hepatocyte clearance) assay, substrate depletion; format: in vitro ADME, human; details: both sexes, human, s9, Clint.1.Med
Output spec: scalar in µL/min/1e6 cells, unitless text.

Molecule	Units Symbol	hepatocyte CLint at 1 μM
CCNc1nc(NC(C)C)nc(SC)n1 [Ametryn, reference compound]	µL/min/1e6 cells	14.7

Query molecule follows.
So for `OCC(F)(F)OC(F)(F)C(F)(F)OC(F)(F)C(F)(F)OC(F)(F)CO` , the logged hepatocyte CLint at 1 μM turned out to be 5.23

---

List of % remaining_PPB values.
system: human plasma; assay: Chemical stability in plasma over the UC assay time course (T5hr/T1hr); conditions: chemical remaining in plasma over the PPB assay time course; NS = no significant loss
Please state the figure in %; there is no need to write the unit.

Solved entries:
Compound	Result
FC(F)(F)C(F)(F)C(F)(F)C(F)(F)C(F)(F)C(F)(F)CCS	0
CC(O)C(F)(F)C(F)(F)F (centres unmarked)	0

Documented % remaining_PPB of `N=C(N)C(F)(F)C(F)(F)C(F)(F)C(F)(F)C(F)(F)C(F)(F)C(F)(F)F` : 67

The value of % remaining_PPB measured for the compound `OCCC(F)(F)C(F)(F)C(F)(F)C(F)(F)C(F)(F)C(F)(F)C(F)(F)C(F)(F)F` turned out to be 100

// field: % remaining_PPB; key: `CO[Si](C)(CCC(F)(F)C(F)(F)C(F)(F)C(F)(F)C(F)(F)C(F)(F)F)OC` ; value = 0

Entry `OCCC(F)(F)C(F)(F)C(F)(F)C(F)(F)C(F)(F)C(F)(F)F` ; % remaining_PPB = 100

Value of % remaining_PPB reported for the compound C=CC(=O)OCCC(F)(F)C(F)(F)C(F)(F)C(F)(F)F [2-(Perfluorobutyl)ethyl acrylate] is 0

Note to self: % remaining_PPB recorded for `FC(F)(F)C(F)(F)C(F)(F)C(F)(F)C(F)(F)C(F)(F)C(F)(F)I` was 16

Per the records, this compound ( `C=CC(=O)OCC(F)(F)C(F)(F)C(F)(F)COC(=O)C=C` ) has % remaining_PPB equal to 0

response.value for `OCCCCC(F)(F)C(F)(F)C(F)(F)C(F)(F)F` (field: % remaining_PPB) = 100

Item: `OCC(F)(F)OC(F)(F)C(F)(F)OC(F)(F)C(F)(F)OC(F)(F)F` | % remaining_PPB: 0

Memo: FC(F)(F)C(F)(F)C(F)(F)CC1CO1 (centres unmarked) [1H,1H-Heptafluorobutyl epoxide] , reported % remaining_PPB: 0

For reference, reported % remaining_PPB for `O=C(CC(=O)C(F)(F)C(F)(F)C(F)(F)F)c1cccs1` stands at 100

response.value for `FC(F)(F)COC(OCC(F)(F)F)OCC(F)(F)F` (field: % remaining_PPB) = 66

Record `NCC(F)(F)C(F)(F)C(F)(F)C(F)(F)C(F)(F)C(F)(F)C(F)(F)F` , field % remaining_PPB: 58

# % remaining_PPB of `NCC(F)(F)C(F)(F)C(F)(F)C(F)(F)C(F)(F)C(F)(F)C(F)(F)C(F)(F)F` = 60

Sure, the documented % remaining_PPB for C=C(C)C(=O)OCC(F)(F)C(F)(F)C(F)(F)C(F)F [1H,1H,5H-Perfluoropentyl methacrylate] is 0.01

Values from paper PMC10223284
